# System: microorganisms with acquired resistance
# assay.protocol: microbe, parasite or virus in culture
# Format: cell-based
# applied.conditions: P. aeruginosa 7
assay.endpoint: Piperacillin MIC + Peptide (µg/mL)
Quick reminder: number only, in µg/mL, skip the unit.

# example entries with known answers
>  <polymer.sequence>
ILKKWPWWPWRRK [MBI 11E3CN]

>  <Piperacillin MIC + Peptide / µg/mL>
64

$$$$
>  <polymer.sequence>
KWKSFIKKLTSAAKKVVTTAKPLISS [MBI 26]

>  <Piperacillin MIC + Peptide / µg/mL>
32

$$$$
>  <polymer.sequence>
ILKKWVWWPWRRK [MBI 11F3CN]

>  <Piperacillin MIC + Peptide / µg/mL>
64

$$$$
>  <polymer.sequence>
ILRWVWWVWRRK [MBI 11F4CN]

>  <Piperacillin MIC + Peptide / µg/mL>
64

$$$$

--- query ---
Return reported Piperacillin MIC + Peptide; argument: ILKKWPWWPWRR [MBI 11G7CN]
64

---

# System: microorganisms with acquired resistance
# assay.protocol: microbe, parasite or virus in culture
# Assay type: cell-based
# applied.conditions: A. baumannii ABI001; Tobramycin section
assay.endpoint: Peptide MIC Alone
Please format your answer as a value with the unit trailing.

>  <polymer.sequence>
ILKKWPWWPWK [MBI 11G13CN]

>  <target.or.system>
microorganisms with acquired resistance

>  <Peptide MIC Alone>
128 µg/mL

$$$$

Recorded Peptide MIC Alone for ILRRVJPWWPWRRR [MBI 11B9CN] , please?
32 µg/mL

Name the recorded Peptide MIC Alone for KKWWRRALQALKNGLPALIS [MBI 22A1] .
4 µg/mL

Tell me the measured Peptide MIC Alone of ILKKWPWWPWRRK [MBI 11CN] , please.
64 µg/mL

Returns the measured Peptide MIC Alone for the input sequence. Input: ILKKWVWWPWRRK [MBI 11F3CN]
32 µg/mL

---

# Tested on: microorganisms with acquired resistance
# assay.protocol: microbe, parasite or virus in culture
# Format: cell-based
# applied.conditions: P. aeruginosa PA041
assay.endpoint: Peptide MIC + Gentamicin (µg/mL)
Give just the numeric value; µg/mL need not be written.

Example sequences with recorded Peptide MIC + Gentamicin:
>  <polymer.sequence>
KWKSFIKKLTSAAKKVLTTGLPALIS [MBI 29A3]

>  <unit.label>
µg/mL

>  <Peptide MIC + Gentamicin>
4

$$$$
>  <polymer.sequence>
ILRWPWWPWRRKIMILKKAGS [MBI 11B16CN]

>  <unit.label>
µg/mL

>  <Peptide MIC + Gentamicin>
16

$$$$
>  <polymer.sequence>
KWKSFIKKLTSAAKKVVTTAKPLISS [MBI 26]

>  <unit.label>
µg/mL

>  <Peptide MIC + Gentamicin>
16

$$$$

Next sequence, please.
Look at this sequence and give its reported Peptide MIC + Gentamicin. KKAAAKAAAAAKAAWAAKAAAKKKK [Deber A2KA2, reference compound]
64

---

# System: P. aeruginosa
# Assay type: cell-based
# applied.conditions: P. aeruginosa strain PA004
assay.endpoint: MIC

Example results:
>  <polymer.sequence>
ILKKWPWWPWK [MBI 11G13CN]

>  <MIC>
>128 µg/mL

$$$$
>  <polymer.sequence>
ILKKFPFWPWRRK [MBI 11A7CN]

>  <MIC>
>128 µg/mL

$$$$
>  <polymer.sequence>
WWRWPWWPWRRK [MBI 11A10CN]

>  <MIC>
64 µg/mL

$$$$
>  <polymer.sequence>
ILKKFPWFPWRRK [MBI 11A6CN]

>  <MIC>
>128 µg/mL

$$$$
>  <polymer.sequence>
ILRYVYYVYRRK [MBI 11A8CN]

>  <MIC>
>128 µg/mL

$$$$
>  <polymer.sequence>
ILKWPWWPWRK [MBI 11B5CN]

>  <MIC>
>128 µg/mL

$$$$

Could you now consider this next sequence?
Dear colleague, I am looking for the recorded MIC of the following sequence: KRRWVWWVWRLI [MBI 11F4CNR]
64 µg/mL

Taken from patent US20020035061A1.
